meta.source: patent US20230107642A1

# experimental.system: Cys12 of the KRAS 4B G12C protein (Homo sapiens, UniProt P01116, G12C)
# Construct: This protein contained 188 amino acids in total, including an N-terminal 6-Histidine tag; made in house; host or cells: E. coli BL21
# assay.name: In vitro covalent adduct formation (CAF) assay, LC-MS intact mass
# Assay type: binding
# experimental.setup: 10 μM compound, after 1 hour
value.kind: CAF (% after 1 hour) (%)

C=CC(=O)N1[C@H](C)CN(c2nc(=O)n3c4c(c(-c5cc(Cl)c(F)cc5F)c(C(F)(F)F)cc24)SC[C@@H](NCC(F)(F)F)C3)C[C@@H]1C | 91
C=CC(=O)N1[C@H](C)CN(c2nc(=O)n3c4c(c(-c5cc(Cl)c(F)cc5F)c(C(F)(F)F)cc24)SC[C@@H](OCC)C3)C[C@@H]1C | 92
C=CC(=O)N1[C@H](C)CN(c2nc(=O)n3c4c(c(-c5ccc(F)c(Cl)c5)c(C(F)(F)F)cc24)SC[C@@H](OCC)C3)C[C@@H]1C | 95
C=CC(=O)N1[C@H](C)CN(c2nc(=O)n3c4c(c(-c5cc(Cl)c(F)cc5F)c(C(F)(F)F)cc24)SCC2(CC2)C3)C[C@@H]1C | 90
C=CC(=O)N1[C@H](C)CN(c2nc(=O)n3c4c(c(-c5ccc(F)cn5)c(C(F)(F)F)cc24)SC[C@@H](OC)C3)C[C@@H]1C | 95
[2H]C([2H])([2H])O[C@@H]1CSc2c(-c3ccc(F)cc3)c(C(F)(F)F)cc3c(N4C[C@@H](C)N(C(=O)C=C)[C@@H](C)C4)nc(=O)n(c23)C1 | 96
C=CC(=O)N1[C@H](C)CN(c2nc(=O)n3c4c(c(-c5ccc(F)cc5)c(C(F)(F)F)cc24)SC[C@@H](OCF)C3)C[C@@H]1C | 95
C=CC(=O)N1[C@H](C)CN(c2nc(=O)n3c4c(c(-c5nc(C(F)(F)F)cs5)c(C(F)(F)F)cc24)SC[C@@H](OC)C3)C[C@@H]1C | 95
C=CC(=O)N1[C@H](C)CN(c2nc(=O)n3c4c(c(-c5cc(Cl)c(F)cc5F)c(C(F)(F)F)cc24)SC[C@@H](OCCN(CC)CC)C3)C[C@@H]1C | 94
C=CC(=O)N1[C@H](C)CN(c2nc(=O)n3c4c(c(-c5cc(Cl)c(F)cc5F)c(C(F)(F)F)cc24)SC[C@@H](Oc2ccncc2)C3)C[C@@H]1C | 94
C=CC(=O)N1[C@H](C)CN(c2nc(=O)n3c4c(c(-c5cc(Cl)c(F)cc5F)c(C(F)(F)F)cc24)SCC2(CCC2)C3)C[C@@H]1C | 95
C=CC(=O)N1[C@H](C)CN(c2nc(=O)n3c4c(c(-c5cc(Cl)c(F)cc5F)c(C(F)(F)F)cc24)SCC2(CC(=O)C2)C3)C[C@@H]1C | 92

----------
# experimental.system: Cys12 of the KRAS 4B G12C protein (Homo sapiens, UniProt P01116, G12C)
# Construct: This protein contained 188 amino acids in total, including an N-terminal 6-Histidine tag; made in house; host or cells: E. coli BL21
# assay.name: In vitro covalent adduct formation (CAF) assay, LC-MS intact mass
# Assay type: binding
# experimental.setup: 10 uM compound, 60 min
# Procedure: This Example provides a protocol for assessing covalent adduct formation (CAF) between the compounds of the present application and KRAS. In vitro covalent adduct formation assay: Covalent adduct formation (CAF) reactions between Cys12 of the KRAS 4B G12C protein and some of the compounds of Tables 1 to 4 were measured in vitro using liquid chromatography-mass spectrometry (LC-MS). Recombinant Human KRAS 4B protein containing the G12C mutation was used in compound screening experiments. […]
value.kind: % CAF 10 uM @ 60 min (%)

C=CC(=O)N1CCN(c2nc(=O)n3c4c(c(-c5ccc(F)c(Cl)c5)c(C(F)(F)F)cc24)SC[C@@H]3COC)CC1 [Example 1345] | 90
C=CC(=O)N1[C@H](C)CN(c2nc(=O)n3c4c(c(-c5ccc(F)c(Cl)c5)c(C(F)(F)F)cc24)SC[C@@H](N2CCOCC2)C3)C[C@@H]1C [Example 1386] | 71.6
C=CC(=O)N1[C@H](C)CN(c2nc(=O)n3c4c(c(-c5cc(Cl)c(F)cc5F)c(C(F)(F)F)cc24)SCC2(COC2)C3)C[C@@H]1C (atropisomer, axis not shown) [Example 1361b] | 71.4

----------
# experimental.system: K-Ras G12C (Homo sapiens, UniProt P01116, G12C)
# Construct: This protein contained 188 amino acids in total, including an N-terminal 6-Histidine tag; made in house; host or cells: E. coli BL21
# assay.name: CAF assay (% CAF; method in Example 7, not in this part)
# Type: binding
# experimental.setup: 10 uM, 1 h; Table 3
value.kind: % CAF @ 10 uM, 1h (%)

Example entries and their recorded answers appear below.
C=CC(=O)N1C[C@H](C)N(c2nc(=O)n3c4c(c(-c5ccc(F)cc5F)c(Cl)cc24)SCC3)C[C@H]1C | 93.8
C=CC(=O)N1CCN(c2nc(=O)n3c4c(c(-c5ccc(F)c(Cl)c5)c(Cl)cc24)SCC3)[C@@H](C)C1 | 86.4
C=CC(=O)N1CCN(c2nc(=O)n3c4c(c(-c5ccc(F)cc5F)c(Cl)cc24)SC[C@H]3CC2CCN(CC(F)F)CC2)[C@@H](C)C1 | 96
C=CC(=O)N1CCN(c2nc(=O)n3c4c(c(-c5c(F)cc(F)cc5F)c(Cl)cc24)SCC3)[C@@H](C)C1 | 90.7
C=CC(=O)N1CCN(c2nc(=O)n3c4c(c(-c5cccc6cnn(C)c56)c(Cl)cc24)SCC3)[C@@H](C)C1 [Example 127] | 60
C=CC(=O)N1C2CN(C(C)=O)CC1CN(c1nc(=O)n3c4c(c(-c5ccc(F)cc5F)c(Cl)cc14)SCC3)C2 | 80.5

[A] C=CC(=O)N1CCN(c2nc(=O)n3c4c(c(-c5c(O)cccc5F)c(Cl)cc24)SCC3)[C@@H](C)C1
[B] C[C@H]1CN(C(=O)/C=C/C(F)F)CCN1c1nc(=O)n2c3c(c(-c4c(F)cc(F)cc4F)c(Cl)cc13)SCC2
[C] C=CC(=O)N1CCN(c2nc(=O)n3c4c(c(-c5cc(Cl)ccc5Cl)c(Cl)cc24)SCC3)[C@@H](C)C1
IN: Rank ascending by % CAF @ 10 uM, 1h. Put the labels in the order asked and list them.
OUT: A, C, B

[a] C=C(F)C(=O)N1CCN(c2nc(=O)n3c4c(c(-c5ccc(F)cc5F)c(Cl)cc24)SCC3)C[C@@H]1CC#N
[b] C=CC(=O)N1CCN(c2nc(=O)n3c4c(c(-c5ccccc5F)c(Cl)cc24)SCC3)[C@@H](C)C1 [Example 160]
IN: Rank a against b by their % CAF @ 10 uM, 1h values and give the higher one. Returns: label corresponding to the selected item.
OUT: b

[A] C=CC(=O)N1CCN(c2nc(=O)n3c4c(c(-c5ccc(F)cc5F)c(Cl)cc24)SCC3)C[C@H]1C
[B] C=CC(=O)N1CCN(c2nc(=O)n3c4c(c(-c5cc(O)ccc5Cl)c(Cl)cc24)SCC3)[C@@H](C)C1
IN: Rank A against B by their % CAF @ 10 uM, 1h values and give the higher one. Returns: label corresponding to the selected item.
OUT: A

----------
# experimental.system: K-Ras G12C (Homo sapiens, UniProt P01116, G12C)
# Construct: This protein contained 188 amino acids in total, including an N-terminal 6-Histidine tag; made in house; host or cells: E. coli BL21
# assay.name: CAF assay (% CAF; method in Example 7, not in this part)
# Type: binding
# experimental.setup: 10 uM compound, 1 h incubation
value.kind: % CAF @ 10 uM, 1h (%)

C=CC(=O)N1C[C@H](C)N(c2nc(=O)n3c4c(c(-c5ccc(F)cc5F)c(C(F)(F)F)cc24)SC[C@@H]3COC)C[C@H]1C (atropisomer, axis not shown) [Example 508] | 92
C=CC(=O)N1CCN(c2nc(=O)n3c4c(c(-c5ccc(F)cc5)c(Cl)cc24)SC[C@@H]3CN2CCC3(CC2)COC3)[C@@H](C)C1 | 87.8
C=CC(=O)N1CCN(c2nc(=O)n3c4c(c(-c5ccc(F)cc5)c(C(F)(F)F)cc24)SC[C@@H]3CN2CCn3c(nnc3C(F)(F)F)C2)[C@@H](C)C1 | 90.9
C=CC(=O)N1CCN(c2nc(=O)n3c4c(c(-c5cc(F)c(F)cc5F)c(Cl)cc24)SC[C@@H]3CN2CCN(CC)CC2)[C@@H](C)C1 | 91.2

----------
# experimental.system: K-Ras G12C (Homo sapiens, UniProt P01116, G12C)
# Construct: This protein contained 188 amino acids in total, including an N-terminal 6-Histidine tag; made in house; host or cells: E. coli BL21
# assay.name: CAF assay (% CAF; method in Example 7, not in this part)
# Type: binding
# experimental.setup: 10 uM compound, 1 h incubation
value.kind: % CAF @ 10 uM, 1h (%)

C=CC(=O)N1[C@H](C)CN(c2nc(=O)n3c4c(c(-c5ccc(F)cc5F)c(C(F)(F)F)cc24)SC[C@@H]3COC)C[C@@H]1C (atropisomer, axis not shown) [Example 547] | 96.7
C=CC(=O)N1CCN(c2nc(=O)n3c4c(c(-c5ccc(F)cc5F)c(Cl)cc24)SC[C@@H]3CN2CCN(C)CC2)[C@@H](C)C1 | 93.3

[a] C=CC(=O)N1CCN(c2nc(=O)n3c4c(c(-c5ccc(F)cc5F)c(Cl)cc24)SC[C@@H]3CC2CCN(CC(F)F)CC2)[C@@H](C)C1
[b] C=CC(=O)N1C[C@H](C)N(c2nc(=O)n3c4c(c(-c5ccc(F)cc5)c(Cl)cc24)SC[C@@H]3COCCOC)C[C@H]1C
[c] C=CC(=O)N1CCN(c2nc(=O)n3c4c(c(-c5cc(Cl)c(F)cc5F)c(C(F)(F)F)cc24)SC[C@H]3COCOC)[C@@H](C)C1
IN: Rank entries according to their % CAF @ 10 uM, 1h, from the largest number down. Put the labels in the order asked and list them.
OUT: a, b, c
(a: 92%, b: 64.3%, c: 35%)

[1] C=CC(=O)N1C[C@H](C)N(c2nc(=O)n3c4c(c(-c5cccc6cnn(C)c56)c(Cl)cc24)SC[C@@H]3CN2CCN(CC(F)F)CC2)C[C@H]1C (atropisomer, axis not shown) [Example 569]
[2] C=CC(=O)N1CCN(c2nc(=O)n3c4c(c(-c5cc(F)c(F)cc5F)c(Cl)cc24)SC[C@@H]3CN2CCN(C3CC3)CC2)[C@@H](C)C1
IN: Lowest % CAF @ 10 uM, 1h? choose 1 or 2 Returns: label corresponding to the selected item.
OUT: 2
